- Tested on: Euschistus heros (Neotropical Brown Stink Bug)
- protocol.details: Example B9: Euschistus heros, sprayed soybean leaves
- Assay type: in vivo
- condition: 120 h, application rate of 200 ppm, N2 nymphs, 5 days after infestation, read-out: effect in at least one of the two categories (mortality or growth inhibition)
# percent effect (mortality or growth inhibition) at 200 ppm listing for each entry below

| compound | test.system | observed.result |
| --- | --- | --- |
| CCS(=O)(=O)c1ccc(-n2cncn2)nc1-c1nc2cc(SC(F)F)ncc2n1C | Euschistus heros (Neotropical Brown Stink Bug) | ≥ 80% |
| CCS(=O)(=O)c1cccnc1-c1nc2cc(SC(F)F)ncc2n1C | Euschistus heros (Neotropical Brown Stink Bug) | ≥ 80% |

# input What value of measured percent effect (mortality or growth inhibition) at 200 ppm is listed for CCS(=O)(=O)c1cc(C(F)(F)F)cnc1-c1nc2cc([S+]([O-])C(F)F)ncc2n1C (stereo not drawn) [Compound P2] ?
# output ≥ 80%
